- System: CCRF-CEM
- run.description: NCI tumour cell line growth inhibition, 48 h
Activity calls are given as the source filed them. Rule as the data show it: active = GI50 up to about 1.1 µM and inactive = higher.
Classes used: active, inactive

- compound: "CN(C)/C=N/S(=O)(=O)c1nn2c(C=O)c(-c3cc4ccccc4oc3=O)nc2s1"
  group.label: "active"
- compound: "COc1ccc2oc(S(=O)(=O)N3CC(CCl)c4ccc(N)cc43)cc2c1 (stereo unspecified)"
  group.label: "active"
- compound: "C/C(CN1C(=O)c2ccccc2C1=O)=N\\NS(=O)(=O)c1ccc(Br)cc1"
  group.label: "inactive"
- compound: "Cc1ccc(C(=O)Nc2ncn(C3CC(O)C(CO)O3)c(=O)n2)cc1 (stereo unspecified)"
  group.label: "inactive"
- compound: "CC1(C)CC[C@]2(C(=O)O)CC[C@]3(C)C(=CCC4=C5C[C@H](O)[C@H](O)[C@@](C)(CO)[C@@]5(C)CC[C@]43C)[C@@H]2C1"
  group.label: "active"
- compound: "c1ccc(C2=NOC(c3ccccc3)N2C23CC4CC(CC(C4)C2)C3)cc1 (stereo unspecified)"
  group.label: "inactive"
- compound: "O=S(=O)(O)c1ccc(Nc2ccnc3cc(Cl)ccc23)cc1"
  group.label: "inactive"
- compound: "COC(=O)C1(Cc2ccccc2)Cc2cc3c(cc2C1=O)CCC3 (stereo unspecified)"
  group.label: "inactive"
- compound: "COc1ccc(NC(=O)CC(=O)N2N=C(N(c3ccccc3)c3ccccc3)CC2c2ccccc2)cc1 (stereo unspecified)"
  group.label: "inactive"
- compound: "O=C(/C=C/c1ccc(O)cc1)c1ccc(O)cc1 [4,4'-DIHYDROXYCHALCONE]"
  group.label: "inactive"
- compound: "Cc1c2cnccc2c(C)c2c1[nH]c1ccc(O)cc12"
  group.label: "active"
- compound: "N#CC(C#N)=Cn1c(=S)[nH]c2ccccc21"
  group.label: "inactive"
- compound: "COC1(OC)C2C=CC1C([C@](C)(N)CO)C2 (stereo partly specified)"
  group.label: "inactive"
- compound: "O=C1c2ccccc2-c2nc(/C=C/c3ccccc3)cc3c2c1nc1ccccc13"
  group.label: "inactive"
- compound: "Nc1nc(O)c([N+](=O)[O-])c(NCCOCP(=O)(O)O)n1"
  group.label: "inactive"
- compound: "Nc1nc(NCC2(CO)CC(CCc3ccccc3)C2)cc(=O)[nH]1 (stereo unspecified)"
  group.label: "inactive"
- compound: "S=C(c1c[nH]c2ccccc12)N1CCOCC1"
  group.label: "inactive"
- compound: "O=C1CCCCC1S(=O)(=O)c1ccccc1 (stereo unspecified)"
  group.label: "inactive"
- compound: "NC1=C(N2CCCCC2)C(=O)NC2=N/C(=C\\c3ccco3)C(=O)N21"
  group.label: "inactive"
- compound: "CCOC(=O)C1=NN(c2ccccc2)C2=CC(C)=NN(C)C(=S)N21"
  group.label: "inactive"
- compound: "NS(=O)(=O)c1ccc(/N=N/c2c(O)c(C(=O)O)cc3ccccc23)cc1"
  group.label: "inactive"
- compound: "COCC(=O)[C@]1(O)Cc2c(O)c3c(c(O)c2[C@@H](OC2CC(N)C(O)C(C)O2)C1)C(=O)c1c(OC)cccc1C3=O (stereo partly specified)"
  group.label: "active"
- compound: "O=C(/N=N/c1cc(Cl)ccc1Cl)NNc1cc(Cl)ccc1Cl"
  group.label: "inactive"
- compound: "COc1ccc(Cn2c3c(cc(OS(=O)(=O)C(F)(F)F)c2=O)Cc2ccccc2-3)cc1"
  group.label: "inactive"
- compound: "Cc1cc(C)c2c(n1)S(=O)(=O)N(CCCN1CCN(c3cccc(C(F)(F)F)c3)CC1)c1c-2nn(C)c1C"
  group.label: "inactive"
- compound: "CC1(C)CC2(CC(C)(C)N1O)NC(=O)OC2=O"
  group.label: "inactive"
- compound: "ClC1=C(Cl)C(Cl)(Cl)SS1"
  group.label: "active"
- compound: "CC(C)(C)/N=C1/CC(C)(C)c2ccccc2/C(=N\\c2ccccc2)S1"
  group.label: "inactive"
- compound: "CC(=O)Nc1nnc(S(C)(=O)=O)s1"
  group.label: "inactive"
- compound: "COC(=O)[C@]12CSC[C@H]1C[C@H](c1ccccc1OC)N2"
  group.label: "inactive"
- compound: "CN1CN(C(=O)N2CN(C)C(=O)N(C)C2)CN(C)C1=O"
  group.label: "inactive"

Value source: ChEMBL document CHEMBL1201862
